Could you please report measured Kd for the items listed next?
# TESTED TARGET: T1, human FcRH5 protein fragment (soluble) (human, UniProt Q96RD9 16-851)
# T1 construct: whole entry named; also called soluble human FcRH5; Human FcRH5 (BIACORE analyte)
# T1 sequence: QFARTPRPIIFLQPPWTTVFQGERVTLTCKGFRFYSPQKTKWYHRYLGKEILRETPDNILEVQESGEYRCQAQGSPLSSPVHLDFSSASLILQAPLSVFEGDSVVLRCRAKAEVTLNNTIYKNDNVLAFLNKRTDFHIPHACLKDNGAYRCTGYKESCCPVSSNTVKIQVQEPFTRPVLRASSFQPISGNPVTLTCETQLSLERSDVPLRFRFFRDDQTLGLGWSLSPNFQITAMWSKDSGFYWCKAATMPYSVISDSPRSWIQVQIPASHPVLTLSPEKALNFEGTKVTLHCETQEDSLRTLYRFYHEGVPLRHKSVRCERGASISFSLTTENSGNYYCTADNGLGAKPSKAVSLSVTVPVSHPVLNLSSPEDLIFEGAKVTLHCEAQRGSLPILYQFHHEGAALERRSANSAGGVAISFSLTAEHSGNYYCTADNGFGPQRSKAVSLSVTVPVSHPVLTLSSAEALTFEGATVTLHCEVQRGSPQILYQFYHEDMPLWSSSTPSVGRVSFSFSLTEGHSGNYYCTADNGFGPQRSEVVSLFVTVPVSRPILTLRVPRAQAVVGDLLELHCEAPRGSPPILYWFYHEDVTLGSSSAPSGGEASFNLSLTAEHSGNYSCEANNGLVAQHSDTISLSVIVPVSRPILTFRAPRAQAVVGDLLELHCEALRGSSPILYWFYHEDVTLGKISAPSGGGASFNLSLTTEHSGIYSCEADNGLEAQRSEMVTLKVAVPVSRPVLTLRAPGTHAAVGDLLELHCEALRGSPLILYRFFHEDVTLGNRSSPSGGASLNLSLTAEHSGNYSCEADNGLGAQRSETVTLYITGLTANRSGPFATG
# PROTOCOL TEXT: SPR (BIACORE), IgG captured via anti-human IgG, FcRH5 protein fragment as analyte (100 and 500 nM)
Output spec: scalar in nM, unitless text.

Q: Specify reported Kd for the binder shown: hu1G7.v1 heavy chain M64L with light chain of hu1G7.v1 (antibody, V domains shown, human IgG) VH: EVQLVESGPGLVKPSETLSLTCTVSGFSLTRFGVHWVRQPPGKGLEWLGVIWRGGSTDYNAAFLSRLTISKDNSKNQVSLKLSSVTAADTAVYYCSNHYYGSSDYALDNWGQGTLVTVSS VL: DIQMTQSPSSLSASVGDRVTITCKASQDVSNIVVWFQQKPGKSPKLLIYSASYRYTGVPSRFSGSGSGTDFTLTISSLQPEDFATYYCQQHYSSPYTFGQGTKVEIK
Ans: 26.5

Q: Specify reported Kd for the binder shown: hu1G7.v1 heavy chain M64F with light chain of hu1G7.v1.4 (antibody, V domains shown, human IgG) VH: EVQLVESGPGLVKPSETLSLTCTVSGFSLTRFGVHWVRQPPGKGLEWLGVIWRGGSTDYNAAFFSRLTISKDNSKNQVSLKLSSVTAADTAVYYCSNHYYGSSDYALDNWGQGTLVTVSS VL: DIQMTQSPSSLSASVGDRVTITCKASQDVRNLVVWFQQKPGKAPKLLIYSGSYRYSGVPSRFSGSGSGTDFTLTISSLQPEDFATYYCQQHYSPPYTFGQGTKVEIK
Ans: 2.5

Q: Specify reported Kd for the binder shown: hu1G7.v1 heavy chain W52Y with light chain of hu1G7.v1.7 (antibody, V domains shown, human IgG) VH: EVQLVESGPGLVKPSETLSLTCTVSGFSLTRFGVHWVRQPPGKGLEWLGVIYRGGSTDYNAAFMSRLTISKDNSKNQVSLKLSSVTAADTAVYYCSNHYYGSSDYALDNWGQGTLVTVSS VL: DIQMTQSPSSLSASVGDRVTITCKASQDVRNLVVWFQQKPGKAPKLLIYSGYYRYTGVPSRFSGSGSGTDFTLTISSLQPEDFATYYCQQHYQPPYTFGQGTKVEIK
Ans: 136

These entries and their values trace back to patent US20240383984A1.
